Provide the recorded Kd for the entries that follow.
TARGET: T1, LmoNrdR (Listeria monocytogenes serotype 1/2a …, UniProt Q8Y6W9 1-154)
T1 sequence: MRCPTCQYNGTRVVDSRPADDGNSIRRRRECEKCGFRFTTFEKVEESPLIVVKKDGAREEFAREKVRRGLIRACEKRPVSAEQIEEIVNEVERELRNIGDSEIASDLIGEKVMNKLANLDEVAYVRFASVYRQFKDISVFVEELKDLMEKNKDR
ASSAY REMARKS: MST; dATP + ATP; MST, temperature not stated. Lmo: 25 mM Bis-Tris propane pH 6.5, 100 mM KCl, 5 mM MgCl2, 5% glycerol, 1 mM DTT, 0.05% Tween 20, one nucleotide 1 mM or two at 0.5 mM each; Spn: 25 mM HEPES pH 7.2, 250 mM NaCl, 2.5 mM MgCl2, 15% glycerol, 2 mM DTT, 0.1 mg/mL BSA, 0.05% Tween 20, 0.5 mM ATP and/or dATP; Eco: 25 mM Tris pH 8.5, 100 mM NaCl, 7 mM MgCl2, 1 mM DTT, 0.025% Tween 20, 1 mM ATP + 1 mM dATP; …
CONDITION LABEL: protein: recombinant; tags: C-terminal His6; chain copies: 4; label: 5'-Cy5 sense; blunt

BINDER: Synt 14 bp spacer (dsDNA) DNA 1: GCCAAACACAACATCTAGTGGTTGGATAGCTGAGCACACAACATCTAGTGGACCTC DNA 2: GAGGTCCACTAGATGTTGTGTGCTCAGCTATCCAACCACTAGATGTTGTGTTTGGC
Kd: 0.002 µM

Would you kindly look at the next entry?
Respond only with Kd recorded for Synt 24 bp spacer (dsDNA) DNA 1: GCCAAACACAACATCTAGTGGTTGGATAGCGTGAATTCACCTAGCACACAACATCTAGTGGACCTC DNA 2: GAGGTCCACTAGATGTTGTGTGCTAGGTGAATTCACGCTATCCAACCACTAGATGTTGTGTTTGGC 0.026 µM
